B1: FBXO3 (parent)
chain: DEEERRRRVFDVPIRRRRCSRLF

Variants of: B1
Assay: protein stability index of a GFP-peptide fusion (GPS, HEK-293T) (PSI 1-6); higher = more stable;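 also: lentivirally expressed fusions sorted by FACS into six bins by GFP to DsRed ratio, PSI derived from sequencing read proportions per bin multiplied by bin number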
Settings: c terminus: native
protein stability index: recorded values
observable: protein stability index

>>> print(df.to_string())
              residue_codes               observable  endpoint_value
 0  DEELRRRRVFDVPIRRRRCSRLF  protein stability index            1.59
 1  DEEEDRRRVFDVPIRRRRCSRLF  protein stability index            3.64
 2  DEEERRRAVFDVPIRRRRCSRLF  protein stability index            3.74
 3  FEEERRRRVFDVPIRRRRCSRLF  protein stability index            1.92
 4  DEEERRRRVFDQPIRRRRCSRLF  protein stability index            3.24
 5  DEEERRRRVFDVPVRRRRCSRLF  protein stability index            3.27
 6  DEEERRRRVFKVPIRRRRCSRLF  protein stability index            2.51
 7  DEEERRRRPFDVPIRRRRCSRLF  protein stability index            3.44
 8  DEEERRRRVFDVPIRRRRCTRLF  protein stability index            1.91
 9  DGEERRRRVFDVPIRRRRCSRLF  protein stability index            2.58
10  DEEERRRRVFDVPIRRRRCSRQF  protein stability index            1.55
11  DEEERRRRVCDVPIRRRRCSRLF  protein stability index            3.43
12  DEEERRRRVGDVPIRRRRCSRLF  protein stability index            4.62
13  DEEERRRRVFDVPIRRRRCSRLQ  protein stability index            2.98
14  DEEERRRRVFDVPIRRRRCSRMF  protein stability index            2.28
15  DEEERRRRVFDVPQRRRRCSRLF  protein stability index            2.53
16  DEEERRRRVFDVPIRRRRCPRLF  protein stability index            2.51
17  DEEERRRRVFDVPIRRRRCSRDF  protein stability index            4.94
18  DEEERRRRVFDVPIRRARCSRLF  protein stability index             2.5
19  DEEERRRRVFDVPIRQRRCSRLF  protein stability index            2.24
20  DEEERRRRVFDVVIRRRRCSRLF  protein stability index            2.89
21  DEEERRIRVFDVPIRRRRCSRLF  protein stability index             2.8
22  DEEESRRRVFDVPIRRRRCSRLF  protein stability index            3.55

Ref: the supplement of paper PMC10567573
